molecular target: RET (Homo sapiens, UniProt P07949); assay: RET kinase inhibition, Caliper screening (fluorescent substrate phosphorylation, electrophoretic separation); conditions: concentration 1.0E−09 (unit not given)
Sequence (P07949 29-1114, species assumed): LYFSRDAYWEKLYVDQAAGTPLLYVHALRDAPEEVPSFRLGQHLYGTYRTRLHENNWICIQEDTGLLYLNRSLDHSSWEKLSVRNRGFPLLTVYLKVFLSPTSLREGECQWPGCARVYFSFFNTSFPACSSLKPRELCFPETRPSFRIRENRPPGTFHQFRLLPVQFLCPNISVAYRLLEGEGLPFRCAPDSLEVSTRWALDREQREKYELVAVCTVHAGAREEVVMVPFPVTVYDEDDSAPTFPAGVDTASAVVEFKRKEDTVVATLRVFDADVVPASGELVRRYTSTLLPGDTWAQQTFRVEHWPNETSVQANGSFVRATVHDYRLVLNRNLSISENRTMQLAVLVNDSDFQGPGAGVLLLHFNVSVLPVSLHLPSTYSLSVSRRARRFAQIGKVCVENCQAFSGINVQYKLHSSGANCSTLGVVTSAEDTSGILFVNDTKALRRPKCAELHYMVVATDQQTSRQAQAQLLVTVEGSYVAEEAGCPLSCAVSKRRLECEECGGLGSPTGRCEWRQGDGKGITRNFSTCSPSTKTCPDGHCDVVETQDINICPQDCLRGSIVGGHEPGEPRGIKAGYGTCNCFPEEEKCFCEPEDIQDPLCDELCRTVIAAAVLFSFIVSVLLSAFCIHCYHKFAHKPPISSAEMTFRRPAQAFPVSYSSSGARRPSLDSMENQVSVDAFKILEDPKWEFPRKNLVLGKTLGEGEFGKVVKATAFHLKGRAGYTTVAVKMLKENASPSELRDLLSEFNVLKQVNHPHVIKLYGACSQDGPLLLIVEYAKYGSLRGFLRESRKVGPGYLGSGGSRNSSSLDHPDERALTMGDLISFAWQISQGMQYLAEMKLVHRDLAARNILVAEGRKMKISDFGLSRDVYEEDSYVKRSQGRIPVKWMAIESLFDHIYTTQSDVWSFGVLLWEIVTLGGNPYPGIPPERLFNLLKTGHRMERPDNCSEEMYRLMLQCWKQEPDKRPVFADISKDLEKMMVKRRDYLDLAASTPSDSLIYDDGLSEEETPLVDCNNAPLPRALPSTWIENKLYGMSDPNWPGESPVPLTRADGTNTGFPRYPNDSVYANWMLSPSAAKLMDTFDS
RET AVG % Activity at Specific Concentration values by entry

Consider the worked cases shown below.
COMPOUND: COCCOCCOCCOCCOCCOCCOCCOCCOCCNC(=O)c1c(C)[nH]c(/C=C2\C(=O)Nc3ccc(F)cc32)c1C [mPEG9-semaxanib]
TESTED_ON: RET (Homo sapiens, UniProt P07949)
RESULT: 104%
--
COMPOUND: COCCOCCOCCOCCOCCNC(=O)c1c(C)[nH]c(/C=C2\C(=O)Nc3ccc(F)cc32)c1C [mPEG5-semaxanib]
TESTED_ON: RET (Homo sapiens, UniProt P07949)
RESULT: 98%
--
COMPOUND: COCCOCCOCCOCCNC(=O)c1c(C)[nH]c(/C=C2\C(=O)Nc3ccc(F)cc32)c1C [mPEG4-semaxanib]
TESTED_ON: RET (Homo sapiens, UniProt P07949)
RESULT: 89%
--
COMPOUND: COCCOCCOCCNC(=O)c1c(C)[nH]c(/C=C2\C(=O)Nc3ccc(F)cc32)c1C [mPEG3-semaxanib]
TESTED_ON: RET (Homo sapiens, UniProt P07949)
RESULT: 92%
--
COMPOUND: COCCOCCOCCOCCOCCOCCOCCOCCNC(=O)c1c(C)[nH]c(/C=C2\C(=O)Nc3ccc(F)cc32)c1C [mPEG8-semaxanib]
TESTED_ON: RET (Homo sapiens, UniProt P07949)
RESULT: 102%

What does the data say about its RET AVG % Activity at Specific Concentration? Entry: COCCOCCOCCOCCOCCOCCOCCNC(=O)c1c(C)[nH]c(/C=C2\C(=O)Nc3ccc(F)cc32)c1C [mPEG7-semaxanib]
99%

* * *

target: c-Kit (Homo sapiens); experiment: c-Kit tyrosine kinase inhibition, Caliper screening (fluorescent substrate phosphorylation, electrophoretic separation); format: biochemical; details: concentration 1.0E−07 (unit not given)
Sequence (P10721 26-976): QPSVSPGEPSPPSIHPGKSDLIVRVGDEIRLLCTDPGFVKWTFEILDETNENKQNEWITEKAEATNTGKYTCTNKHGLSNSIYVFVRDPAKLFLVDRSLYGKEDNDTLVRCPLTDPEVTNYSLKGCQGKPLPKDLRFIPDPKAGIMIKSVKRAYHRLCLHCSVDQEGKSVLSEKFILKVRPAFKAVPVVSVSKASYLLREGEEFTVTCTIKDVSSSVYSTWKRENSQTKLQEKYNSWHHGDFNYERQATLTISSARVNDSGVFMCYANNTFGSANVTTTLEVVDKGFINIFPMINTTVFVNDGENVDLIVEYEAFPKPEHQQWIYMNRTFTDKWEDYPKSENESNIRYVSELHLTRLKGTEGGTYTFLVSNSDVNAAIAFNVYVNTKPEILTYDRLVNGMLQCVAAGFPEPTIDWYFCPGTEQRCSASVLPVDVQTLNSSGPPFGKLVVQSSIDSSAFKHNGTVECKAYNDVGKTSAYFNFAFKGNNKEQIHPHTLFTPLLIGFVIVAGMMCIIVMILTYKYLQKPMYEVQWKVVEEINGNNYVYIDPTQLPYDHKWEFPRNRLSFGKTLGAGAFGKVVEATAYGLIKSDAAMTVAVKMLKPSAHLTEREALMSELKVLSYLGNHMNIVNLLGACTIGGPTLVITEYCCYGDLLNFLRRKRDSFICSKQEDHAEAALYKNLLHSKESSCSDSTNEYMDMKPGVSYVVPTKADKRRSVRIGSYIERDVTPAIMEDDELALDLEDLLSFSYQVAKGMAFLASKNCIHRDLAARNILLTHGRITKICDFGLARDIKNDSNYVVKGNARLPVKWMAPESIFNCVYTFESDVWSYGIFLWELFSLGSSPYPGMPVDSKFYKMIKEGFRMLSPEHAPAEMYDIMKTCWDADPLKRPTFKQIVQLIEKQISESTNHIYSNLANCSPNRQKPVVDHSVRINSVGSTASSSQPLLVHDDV
QUANTITY_KIND: c-Kit AVG % Activity at Specific Concentration (%)
Reply with just the number (in %).

Record request: c-Kit AVG % Activity at Specific Concentration value, item COCCOCCOCCOCCOCCOCCOCCOCCNC(=O)c1c(C)[nH]c(/C=C2\C(=O)Nc3ccc(F)cc32)c1C [mPEG8-semaxanib]
75

Endpoint output: c-Kit AVG % Activity at Specific Concentration of COCCOCCOCCOCCNC(=O)c1c(C)[nH]c(/C=C2\C(=O)Nc3ccc(F)cc32)c1C [mPEG4-semaxanib] . Value?
70

Endpoint output: c-Kit AVG % Activity at Specific Concentration of COCCOCCOCCOCCOCCOCCOCCOCCOCCNC(=O)c1c(C)[nH]c(/C=C2\C(=O)Nc3ccc(F)cc32)c1C [mPEG9-semaxanib] . Value?
90

* * *

target: VEGFR-2 (Homo sapiens, UniProt P35968); assay: VEGFR-2 kinase inhibition, Caliper screening (fluorescent substrate phosphorylation, electrophoretic separation); conditions: concentration 1.0E−09 (unit not given)
Sequence (P35968 20-1356, species assumed): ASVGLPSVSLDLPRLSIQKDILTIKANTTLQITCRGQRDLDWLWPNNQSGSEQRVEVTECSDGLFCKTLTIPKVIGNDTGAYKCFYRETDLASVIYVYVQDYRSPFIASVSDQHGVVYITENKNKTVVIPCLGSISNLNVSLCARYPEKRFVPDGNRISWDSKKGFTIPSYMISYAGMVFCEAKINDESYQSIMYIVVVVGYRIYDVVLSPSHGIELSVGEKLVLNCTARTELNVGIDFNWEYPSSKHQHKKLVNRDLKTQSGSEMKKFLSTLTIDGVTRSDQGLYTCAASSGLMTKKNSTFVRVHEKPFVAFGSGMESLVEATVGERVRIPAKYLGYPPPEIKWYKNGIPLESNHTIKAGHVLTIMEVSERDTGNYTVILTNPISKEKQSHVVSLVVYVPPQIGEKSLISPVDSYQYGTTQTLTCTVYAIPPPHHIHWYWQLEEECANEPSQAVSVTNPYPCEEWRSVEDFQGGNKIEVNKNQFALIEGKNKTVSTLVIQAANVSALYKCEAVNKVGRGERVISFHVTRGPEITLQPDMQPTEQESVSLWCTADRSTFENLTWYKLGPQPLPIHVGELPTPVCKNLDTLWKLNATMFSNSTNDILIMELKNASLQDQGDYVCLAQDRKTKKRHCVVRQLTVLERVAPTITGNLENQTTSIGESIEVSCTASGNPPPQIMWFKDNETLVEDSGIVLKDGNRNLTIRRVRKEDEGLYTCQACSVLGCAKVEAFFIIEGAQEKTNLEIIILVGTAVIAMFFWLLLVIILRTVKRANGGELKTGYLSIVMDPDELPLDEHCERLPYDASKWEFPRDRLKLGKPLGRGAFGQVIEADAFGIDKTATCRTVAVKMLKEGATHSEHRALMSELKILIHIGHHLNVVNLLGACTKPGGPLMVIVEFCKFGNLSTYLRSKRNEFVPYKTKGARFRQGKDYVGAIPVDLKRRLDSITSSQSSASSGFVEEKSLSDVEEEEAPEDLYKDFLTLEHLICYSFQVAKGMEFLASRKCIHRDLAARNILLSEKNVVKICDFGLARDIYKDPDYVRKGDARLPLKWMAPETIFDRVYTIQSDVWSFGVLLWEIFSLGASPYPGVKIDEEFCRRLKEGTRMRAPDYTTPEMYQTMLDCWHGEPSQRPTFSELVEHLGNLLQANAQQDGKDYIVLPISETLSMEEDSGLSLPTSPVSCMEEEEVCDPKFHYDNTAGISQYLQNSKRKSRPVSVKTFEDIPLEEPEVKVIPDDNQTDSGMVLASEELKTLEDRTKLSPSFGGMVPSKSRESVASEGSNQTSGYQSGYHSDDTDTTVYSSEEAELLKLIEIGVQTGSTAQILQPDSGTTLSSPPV
Recorded VEGFR-2 AVG % Activity at Specific Concentration by entry
Number only, in %; omit the unit.

Use the examples below as a reference point.
SAMPLE_SMILES: COCCOCCOCCOCCOCCOCCOCCNC(=O)c1c(C)[nH]c(/C=C2\C(=O)Nc3ccc(F)cc32)c1C
READOUT_NUMBER: 95

SAMPLE_SMILES: COCCOCCOCCOCCOCCOCCOCCOCCOCCNC(=O)c1c(C)[nH]c(/C=C2\C(=O)Nc3ccc(F)cc32)c1C
READOUT_NUMBER: 84

SAMPLE_SMILES: COCCOCCOCCOCCOCCOCCOCCOCCNC(=O)c1c(C)[nH]c(/C=C2\C(=O)Nc3ccc(F)cc32)c1C
READOUT_NUMBER: 86

SAMPLE_SMILES: COCCOCCOCCNC(=O)c1c(C)[nH]c(/C=C2\C(=O)Nc3ccc(F)cc32)c1C
READOUT_NUMBER: 87

With those in mind, consider the next molecule.
Sample `COCCOCCOCCOCCNC(=O)c1c(C)[nH]c(/C=C2\C(=O)Nc3ccc(F)cc32)c1C` — what was its VEGFR-2 AVG % Activity at Specific Concentration?
92
